Each entry below carries its reported growth.
System: BT-549 breast
test description: NCI-60 one-dose screen, 48 h (100 = growth as untreated, 0 = no growth, -100 = all killed)
setup conditions: 10 µM unless noted
Description: Growth inhibition of the BT-549 human tumor cell line is measured as a screen for anti-cancer activity. Cells are grown in 96 well plates and exposed to the test compound for 48 hours. Compounds are tested at a single concentration, which is 10^-5 M for most compounds. The reported endpoint is percent growth (GI% or GIPRCNT), where numbers from 0 - 100% represent growth inhibition, and numbers from -100% - 0 represent cell death. For example, a value of 40 represents 60% growth inhibition. […]
About 83,000 compounds went through this panel and 20% of them were active in at least one assay; those are over-represented in the sample as a whole. Calls of active or inactive are those of the source. How the source made its calls: active means growth percent below 10; inactive means the rest.

{"compound": "Cc1[nH]c(C(=O)Nc2ccccc2OCc2cccc(C(=O)N3CCC[C@@H](N)C3)c2)c(Cl)c1Cl", "growth": "-89.4% (active)"}
{"compound": "C[C@H]1c2[nH]c3ccccc3c2C[C@H]2C(=O)N(CCCCCCC(=O)NO)CC(=O)N21", "growth": "96.5% (inactive)"}
{"compound": "COc1cc(/C=N/NC(=O)c2cn(C3CC3)c3c(OC)c(N4CC5CCCNC5C4)c(F)cc3c2=O)ccc1O (centres undefined)", "growth": "107% (inactive)"}
{"compound": "Cn1ccnc1C(=O)/C=C/c1ccc(NC(=O)c2ccc(F)cc2)cc1", "growth": "69.4% (inactive)"}
{"compound": "O=C1C(c2ccccc2)=C(N2CCc3ccccc32)OC1(Cl)Cl", "growth": "75.1% (inactive)"}
{"compound": "O=C(CCn1cc[n+](CC(=O)c2ccc(-c3ccccc3)cc2)c1)Nc1cccc2cccnc12", "growth": "57.2% (inactive)"}
{"compound": "CCn1c(SCC(=O)Nc2cccc(C(=O)/C=C/c3ccc(Br)cc3)c2)nc2ccccc2c1=O", "growth": "85.7% (inactive)"}
{"compound": "c1ccc(C(c2nc3ncncc3[nH]2)N2CSc3nc4ccccc4n3C2)cc1 (centres undefined)", "growth": "102% (inactive)"}
{"compound": "CCOC(=O)c1c(Nc2ccccc2)nn2c(-c3ccccc3)ccnc12", "growth": "145% (inactive)"}

----------
The following molecules are shown together with reported growth values.
Test system: SW-620 colon
test description: NCI-60 one-dose screen, 48 h (100 = growth as untreated, 0 = no growth, -100 = all killed)
setup conditions: 10 µM unless noted
The panel holds about 83,000 compounds, 20% with a hit somewhere; the sample as a whole holds those more often.
measured quantity: growth (%)

{"molecule": "O=C(c1ccc(Cl)cc1)C1[C@H](c2ccc(Cl)cc2)[C@@H](c2ccccc2)NC12C(=O)Nc1ccccc12 (stereo not given in full)", "reported": 54}
{"molecule": "CCCn1cnc2c(c1=N)C(c1ccc(Cl)cc1)c1sc3c(C)cccc3c1O2 (stereo not given)", "reported": 25.8}
{"molecule": "CNC1CCc2c(sc(NC(=O)c3ccc(C(C)(C)C)cc3)c2C(N)=O)C1 (stereo not given)", "reported": -53.5}
{"molecule": "CCNC(=O)N1CCc2cc(OC)c(OCCc3ccc(OC)c(N)c3)cc2C1c1cc(C)c(C)cc1C (stereo not given)", "reported": 15.7}
{"molecule": "Cc1nn(-c2ccccc2)c2ncnc(N/N=C/c3cccc(O)c3)c12", "reported": 34}
{"molecule": "N=c1c2cc(-c3ccccc3)oc2ncn1/N=C/c1ccc(Br)cc1", "reported": 31}
{"molecule": "CC(=O)N1C(=S)NC(=O)C1CC(C)C (stereo not given)", "reported": 102}
{"molecule": "CCO/C=N/C1=C(C#N)C(c2ccc(F)cc2)c2sc3c(C)cccc3c2O1 (stereo not given)", "reported": 19.6}
{"molecule": "CCCCCc1ccc(S(=O)(=O)Nc2cccc(-c3csc(NC(=O)CNCCN(C)C)n3)c2)cc1", "reported": 87.3}
{"molecule": "O=C(CCn1c[n+](CC(=O)c2ccc(-c3ccccc3)cc2)c2ccccc21)Nc1cccc2cccnc12", "reported": 65.2}
